- Tested on: 435261-313-R-J1-PDC tumor spheroid viability
- EXPERIMENT DESCRIPTION: Anticancer human tumor 435261-313-R-J1-PDC patient-derived colon adenocarcinoma cell line growth inhibition [PI3K]; active = viability on the fitted dose curve at most 10% of control; inactive = the rest
- PROTOCOL CONDITIONS: second compound 10 µM; first compound 0.01 µM; spheroids with HUVEC and MSC
# output must be one of yes (1) = active, no (0) = inactive

Ask | Which outcome was entered for the compound CCN1CCN(Cc2ccc(Nc3ncc(F)c(-c4cc(F)c5nc(C)n(C(C)C)c5c4)n3)nc2)CC1 + CC(Nc1ncnc2nc[nH]c12)c1cc2cccc(Cl)c2c(=O)n1-c1ccccc1 in this test?
Reply | no (0)

Ask | Test call, this compound: CC(=O)c1c(C)c2cnc(Nc3ccc(N4CCNCC4)cn3)nc2n(C2CCCC2)c1=O + Cc1nc(NC(=O)N2CCCC2C(N)=O)sc1-c1ccnc(C(C)(C)C(F)(F)F)c1
Reply | yes (1)

Ask | Record lookup: outcome of this test for Cn1ncnc1[C@H]1c2n[nH]c(=O)c3cc(F)cc(c23)N[C@@H]1c1ccc(F)cc1 + Cc1nc(NC(=O)N2CCCC2C(N)=O)sc1-c1ccnc(C(C)(C)C(F)(F)F)c1 ?
Reply | yes (1)

* * *

- System: 435261-313-R-J1-PDC tumor spheroid viability
- EXPERIMENT DESCRIPTION: Anticancer human tumor 435261-313-R-J1-PDC cell line growth inhibition [PI3K];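 also: spheroids exposed to compounds for 7 days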
- PROTOCOL CONDITIONS: second compound 0.0316 µM; first compound 0.316 µM; stronger effect = lower value; spheroids with HUVEC and MSC
Please respond with reported viability, T/C for every item in the list.
State just the number; it will be interpreted in %.

Ask | For the record CC1(C)CCC(CN2CCN(c3ccc(C(=O)NS(=O)(=O)c4ccc(NCC5CCOCC5)c([N+](=O)[O-])c4)c(Oc4cnc5[nH]ccc5c4)c3)CC2)=C(c2ccc(Cl)cc2)C1 + Cc1nc(NC(=O)N2CCCC2C(N)=O)sc1-c1ccnc(C(C)(C)C(F)(F)F)c1 , what value of viability, T/C is listed for 435261-313-R-J1-PDC tumor spheroid viability?
Reply | 78.5

Ask | Please state recorded viability, T/C (tested on 435261-313-R-J1-PDC tumor spheroid viability) of CC1(C)CCC(Nc2ncc(C(F)(F)F)c(-c3c[nH]c4c(P(C)(C)=O)c(C#N)ccc34)n2)CN1 (stereo not drawn) + CC(Nc1ccc2c(c1)OCCn1cc(N3C(=O)OCC3C(F)F)nc1-2)C(N)=O
Reply | 38.8

Ask | Hello, I am looking for reported viability, T/C with 435261-313-R-J1-PDC tumor spheroid viability for C[C@@H](NC(=O)c1ncnc(N)c1Cl)c1ncc(C(=O)Nc2cc(C(F)(F)F)c(Cl)cn2)s1 + CC(Nc1ncnc2nc[nH]c12)c1cc2cccc(Cl)c2c(=O)n1-c1ccccc1 . Could you help?
Reply | 124

Ask | What is its viability, T/C for 435261-313-R-J1-PDC tumor spheroid viability? Entry: C=CC(=O)N1CCN(c2nc(=O)n(-c3c(C)ccnc3C(C)C)c3nc(-c4c(O)cccc4F)c(F)cc23)C(C)C1 (stereo not drawn) + CC(Nc1ncnc2nc[nH]c12)c1cc2cccc(Cl)c2c(=O)n1-c1ccccc1
Reply | 103

Ask | Reported viability, T/C for 435261-313-R-J1-PDC tumor spheroid viability, given CC(C)NCC(C(=O)N1CCN(c2ncnc3c2C(C)CC3O)CC1)c1ccc(Cl)cc1 (stereo not drawn) + CC(Nc1ccc2c(c1)OCCn1cc(N3C(=O)OCC3C(F)F)nc1-2)C(N)=O ?
Reply | 50.5

Ask | Give 435261-313-R-J1-PDC tumor spheroid viability viability, T/C for CCN1CCN(Cc2ccc(Nc3ncc(F)c(-c4cc(F)c5nc(C)n(C(C)C)c5c4)n3)nc2)CC1 + CC(Nc1ccc2c(c1)OCCn1cc(N3C(=O)OCC3C(F)F)nc1-2)C(N)=O
Reply | 28.3

Ask | For the record C=CC(=O)N1CCN(c2nc(=O)n(-c3c(C)ccnc3C(C)C)c3nc(-c4c(O)cccc4F)c(F)cc23)C(C)C1 (stereo not drawn) + Cc1nc(NC(=O)N2CCCC2C(N)=O)sc1-c1ccnc(C(C)(C)C(F)(F)F)c1 , what value of viability, T/C is listed for 435261-313-R-J1-PDC tumor spheroid viability?
Reply | 80.8

Ask | Can you look up viability, T/C on 435261-313-R-J1-PDC tumor spheroid viability for CC1(C)CCC(CN2CCN(c3ccc(C(=O)NS(=O)(=O)c4ccc(NCC5CCOCC5)c([N+](=O)[O-])c4)c(Oc4cnc5[nH]ccc5c4)c3)CC2)=C(c2ccc(Cl)cc2)C1 + CC(Nc1ncnc2nc[nH]c12)c1cc2cccc(Cl)c2c(=O)n1-c1ccccc1 ?
Reply | 71.5

Ask | Form: Entry = CCCS(=O)(=O)Nc1ccc(F)c(C(=O)c2c[nH]c3ncc(-c4ccc(Cl)cc4)cc23)c1F + Cc1nc(NC(=O)N2CCCC2C(N)=O)sc1-c1ccnc(C(C)(C)C(F)(F)F)c1 | System = 435261-313-R-J1-PDC tumor spheroid viability | viability, T/C = ____
Reply | 121

Ask | Tell me reported viability, T/C for C=CC(=O)N1CCN(c2nc(=O)n(-c3c(C)ccnc3C(C)C)c3nc(-c4c(O)cccc4F)c(F)cc23)C(C)C1 (stereo not drawn) + COc1c(OCCCN2CCOCC2)ccc2c3n(c(=NC(=O)c4cnc(N)nc4)nc12)CCN3 , tested with 435261-313-R-J1-PDC tumor spheroid viability.
Reply | 29

Ask | Param readout = viability, T/C; param system = 435261-313-R-J1-PDC tumor spheroid viability; param query = CC1(C)CCC(Nc2ncc(C(F)(F)F)c(-c3c[nH]c4c(P(C)(C)=O)c(C#N)ccc34)n2)CN1 (stereo not drawn) + CC(Nc1ncnc2nc[nH]c12)c1cc2cccc(Cl)c2c(=O)n1-c1ccccc1 ; response: value
Reply | 61.4

Ask | State its viability, T/C on 435261-313-R-J1-PDC tumor spheroid viability: CC1(C)CCC(Nc2ncc(C(F)(F)F)c(-c3c[nH]c4c(P(C)(C)=O)c(C#N)ccc34)n2)CN1 (stereo not drawn) + Cc1nc(NC(=O)N2CCCC2C(N)=O)sc1-c1ccnc(C(C)(C)C(F)(F)F)c1
Reply | 39.3

Ask | Request body: readout viability, T/C, system 435261-313-R-J1-PDC tumor spheroid viability, query CNC(=O)c1ccc(N2C(=S)N(c3ccc(C#N)c(C(F)(F)F)c3)C(=O)C2(C)C)cc1F + COc1c(OCCCN2CCOCC2)ccc2c3n(c(=NC(=O)c4cnc(N)nc4)nc12)CCN3 . Return the value.
Reply | 29.9

Ask | Give viability, T/C (435261-313-R-J1-PDC tumor spheroid viability) of the following compound: CNC(=O)c1ccc(N2C(=S)N(c3ccc(C#N)c(C(F)(F)F)c3)C(=O)C2(C)C)cc1F + Cc1nc(NC(=O)N2CCCC2C(N)=O)sc1-c1ccnc(C(C)(C)C(F)(F)F)c1
Reply | 103

Ask | Record CC1(C)CCC(Nc2ncc(C(F)(F)F)c(-c3c[nH]c4c(P(C)(C)=O)c(C#N)ccc34)n2)CN1 (stereo not drawn) + COc1c(OCCCN2CCOCC2)ccc2c3n(c(=NC(=O)c4cnc(N)nc4)nc12)CCN3 : what is its viability, T/C with 435261-313-R-J1-PDC tumor spheroid viability?
Reply | 33.7

Ask | Form field: viability, T/C recorded for CC1(C)CCC(CN2CCN(c3ccc(C(=O)NS(=O)(=O)c4ccc(NCC5CCOCC5)c([N+](=O)[O-])c4)c(Oc4cnc5[nH]ccc5c4)c3)CC2)=C(c2ccc(Cl)cc2)C1 + CC(Nc1ccc2c(c1)OCCn1cc(N3C(=O)OCC3C(F)F)nc1-2)C(N)=O with 435261-313-R-J1-PDC tumor spheroid viability (enter value)
Reply | 55.1

Ask | Give the reported viability, T/C for Cn1ncc(Cl)c1-c1cc(C(=O)NC(CN)Cc2cccc(F)c2)sc1Cl (stereo not drawn) + Cc1nc(NC(=O)N2CCCC2C(N)=O)sc1-c1ccnc(C(C)(C)C(F)(F)F)c1 (system: 435261-313-R-J1-PDC tumor spheroid viability).
Reply | 71.8

Ask | Please tell me: viability, T/C of CNC(=O)c1ccc(N2C(=S)N(c3ccc(C#N)c(C(F)(F)F)c3)C(=O)C2(C)C)cc1F + CC(Nc1ncnc2nc[nH]c12)c1cc2cccc(Cl)c2c(=O)n1-c1ccccc1 , system 435261-313-R-J1-PDC tumor spheroid viability?
Reply | 72.3

* * *

- Tested on: 435261-313-R-J1-PDC tumor spheroid viability
- EXPERIMENT DESCRIPTION: Anticancer human tumor 435261-313-R-J1-PDC cell line growth inhibition [PI3K];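 also: spheroids exposed to compounds for 7 days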
- PROTOCOL CONDITIONS: second compound 0.1 µM; first compound 0.1 µM; stronger effect = lower value; spheroids with HUVEC and MSC
Hi there, I'd appreciate the recorded viability, T/C for every entry that follows.
Report only the number, with the unit % understood.

Ask | What does the data say about its viability, T/C? Entry: CC1(C)CCC(Nc2ncc(C(F)(F)F)c(-c3c[nH]c4c(P(C)(C)=O)c(C#N)ccc34)n2)CN1 (configuration not stated) + COc1c(OCCCN2CCOCC2)ccc2c3n(c(=NC(=O)c4cnc(N)nc4)nc12)CCN3
Reply | 16.8

Ask | Give the measured viability, T/C of Cn1ncnc1[C@H]1c2n[nH]c(=O)c3cc(F)cc(c23)N[C@@H]1c1ccc(F)cc1 + Cc1nc(NC(=O)N2CCCC2C(N)=O)sc1-c1ccnc(C(C)(C)C(F)(F)F)c1 .
Reply | 56.3

Ask | // query viability, T/C value for entry C#Cc1c(F)ccc2cc(O)cc(-c3ncc4c(N5CC6CCC(C5)N6)nc(OCC56CCCN5CC(F)C6)nc4c3F)c12 (configuration not stated) + CC(Nc1ncnc2nc[nH]c12)c1cc2cccc(Cl)c2c(=O)n1-c1ccccc1
Reply | 109

Ask | Would you kindly share the measured viability, T/C for CC(C)NCC(C(=O)N1CCN(c2ncnc3c2C(C)CC3O)CC1)c1ccc(Cl)cc1 (configuration not stated) + CC(Nc1ncnc2nc[nH]c12)c1cc2cccc(Cl)c2c(=O)n1-c1ccccc1 ?
Reply | 88.9

Ask | Value lookup for viability, T/C; key = C#Cc1c(F)ccc2cc(O)cc(-c3ncc4c(N5CC6CCC(C5)N6)nc(OCC56CCCN5CC(F)C6)nc4c3F)c12 (configuration not stated) + Cc1nc(NC(=O)N2CCCC2C(N)=O)sc1-c1ccnc(C(C)(C)C(F)(F)F)c1
Reply | 77

Ask | Request the reported viability, T/C associated with CNC(=O)c1ccc(N2C(=S)N(c3ccc(C#N)c(C(F)(F)F)c3)C(=O)C2(C)C)cc1F + CC(Nc1ccc2c(c1)OCCn1cc(N3C(=O)OCC3C(F)F)nc1-2)C(N)=O
Reply | 28.5

Ask | Name the reported viability, T/C value associated with the compound CC1(C)CCC(CN2CCN(c3ccc(C(=O)NS(=O)(=O)c4ccc(NCC5CCOCC5)c([N+](=O)[O-])c4)c(Oc4cnc5[nH]ccc5c4)c3)CC2)=C(c2ccc(Cl)cc2)C1 + CC(Nc1ncnc2nc[nH]c12)c1cc2cccc(Cl)c2c(=O)n1-c1ccccc1
Reply | 78.2

Ask | Look up viability, T/C: CC1(C)CCC(Nc2ncc(C(F)(F)F)c(-c3c[nH]c4c(P(C)(C)=O)c(C#N)ccc34)n2)CN1 (configuration not stated) + CC(Nc1ncnc2nc[nH]c12)c1cc2cccc(Cl)c2c(=O)n1-c1ccccc1
Reply | 60.4

Ask | // query viability, T/C value for entry CNC(=O)c1ccc(N2C(=S)N(c3ccc(C#N)c(C(F)(F)F)c3)C(=O)C2(C)C)cc1F + COc1c(OCCCN2CCOCC2)ccc2c3n(c(=NC(=O)c4cnc(N)nc4)nc12)CCN3
Reply | 13.9

Ask | viability, T/C lookup needed for CC(Cn1ccc(-c2ccc(C#N)c(Cl)c2)n1)NC(=O)c1cc(C(C)O)[nH]n1 (configuration not stated) + CC(Nc1ccc2c(c1)OCCn1cc(N3C(=O)OCC3C(F)F)nc1-2)C(N)=O , thanks.
Reply | 54.3

Ask | Need viability, T/C, item Cn1nccc1Nc1nccc(-c2ccn(C(CO)c3ccc(Cl)c(F)c3)c(=O)c2)n1 (configuration not stated) + COc1c(OCCCN2CCOCC2)ccc2c3n(c(=NC(=O)c4cnc(N)nc4)nc12)CCN3
Reply | 13.6

Ask | Which measured viability, T/C value corresponds to CC(=O)c1c(C)c2cnc(Nc3ccc(N4CCNCC4)cn3)nc2n(C2CCCC2)c1=O + CC(Nc1ccc2c(c1)OCCn1cc(N3C(=O)OCC3C(F)F)nc1-2)C(N)=O ?
Reply | 23.6

Ask | viability, T/C for CC(C)NCC(C(=O)N1CCN(c2ncnc3c2C(C)CC3O)CC1)c1ccc(Cl)cc1 (configuration not stated) + CC(Nc1ccc2c(c1)OCCn1cc(N3C(=O)OCC3C(F)F)nc1-2)C(N)=O ?
Reply | 28.7

Ask | Fill in the blank: the reported viability, T/C of CC(C)n1nc(-c2ccc3oc(N)nc3c2)c2c(N)ncnc21 + Cc1nc(NC(=O)N2CCCC2C(N)=O)sc1-c1ccnc(C(C)(C)C(F)(F)F)c1 is ____.
Reply | 15.4

Ask | Look up viability, T/C for this compound: CC(Cn1ccc(-c2ccc(C#N)c(Cl)c2)n1)NC(=O)c1cc(C(C)O)[nH]n1 (configuration not stated) + Cc1nc(NC(=O)N2CCCC2C(N)=O)sc1-c1ccnc(C(C)(C)C(F)(F)F)c1
Reply | 70.4

Ask | Requested read-out: viability, T/C. Entry: C=CC(=O)N1CCN(c2nc(=O)n(-c3c(C)ccnc3C(C)C)c3nc(-c4c(O)cccc4F)c(F)cc23)C(C)C1 (configuration not stated) + Cc1nc(NC(=O)N2CCCC2C(N)=O)sc1-c1ccnc(C(C)(C)C(F)(F)F)c1
Reply | 71.3

Ask | Would you kindly share the measured viability, T/C for CCN1CCN(Cc2ccc(Nc3ncc(F)c(-c4cc(F)c5nc(C)n(C(C)C)c5c4)n3)nc2)CC1 + COc1c(OCCCN2CCOCC2)ccc2c3n(c(=NC(=O)c4cnc(N)nc4)nc12)CCN3 ?
Reply | 13.7
